experimentalSystem: MAO B (Rattus norvegicus)
Construct: determined in dilute rat brain homogenate; from tissue; host or cells: rat brain homogenate
Sequence (P19643 whole entry): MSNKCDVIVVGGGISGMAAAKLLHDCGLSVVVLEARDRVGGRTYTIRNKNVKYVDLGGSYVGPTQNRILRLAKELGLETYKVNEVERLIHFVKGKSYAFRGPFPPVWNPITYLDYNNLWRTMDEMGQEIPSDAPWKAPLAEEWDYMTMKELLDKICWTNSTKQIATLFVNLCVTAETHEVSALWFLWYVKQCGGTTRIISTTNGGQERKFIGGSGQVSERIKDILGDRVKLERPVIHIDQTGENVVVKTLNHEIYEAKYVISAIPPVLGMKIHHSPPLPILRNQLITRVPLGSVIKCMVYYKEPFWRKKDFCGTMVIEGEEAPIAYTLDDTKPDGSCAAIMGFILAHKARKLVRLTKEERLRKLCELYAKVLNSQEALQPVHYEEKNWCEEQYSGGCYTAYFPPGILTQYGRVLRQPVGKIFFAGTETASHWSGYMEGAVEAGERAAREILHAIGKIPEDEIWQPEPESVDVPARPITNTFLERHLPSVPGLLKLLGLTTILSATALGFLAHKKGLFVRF
protocol: MAO B inhibition in dilute rat brain homogenate (14C substrate, 20 min at 37° C)
Type: biochemical
experimentalContext: quotient of IC50 MAO A and IC50 MAO B (selectivity for MAO B); 20 min
property: IC50 ratio MAO A / MAO B

Examples with answers:
>  <compound>
Cc1c(C)c2ccc(OCc3csc(C4CC4)n3)cc2oc1=O

>  <IC50 ratio MAO A / MAO B>
~ 7100

$$$$
>  <compound>
Cc1nnc(COc2cc3oc(=O)c(Cl)c(C)c3cc2Cl)s1

>  <IC50 ratio MAO A / MAO B>
> 10000

$$$$
>  <compound>
Cc1ccc(COc2ccc3c(C)c(C)c(=O)oc3c2)s1

>  <IC50 ratio MAO A / MAO B>
680

$$$$
>  <compound>
Cc1c(C)c2cc(Cl)c(OCc3ccccn3)cc2oc1=O

>  <IC50 ratio MAO A / MAO B>
> 13000

$$$$
>  <compound>
Cc1c(C)c2ccc(OCc3nc(C(C)C)no3)cc2oc1=O

>  <IC50 ratio MAO A / MAO B>
> 7700

$$$$
>  <compound>
Cc1c(C)c2ccc(OCc3cc(C4CCCC4)no3)cc2oc1=O

>  <IC50 ratio MAO A / MAO B>
> 7700

$$$$
>  <compound>
CCc1cc2c(C)c(C)c(=O)oc2cc1OCc1cc(C(C)C)n(C)n1

>  <IC50 ratio MAO A / MAO B>
> 1100

$$$$
>  <compound>
Cc1c(C)c2ccc(OCc3nc(C4CC4)no3)cc2oc1=O

>  <IC50 ratio MAO A / MAO B>
~ 5800

$$$$
>  <compound>
Cc1c(C)c2ccc(OCc3cc(C)n(C)n3)cc2oc1=O

>  <IC50 ratio MAO A / MAO B>
> 700

$$$$
>  <compound>
Cc1noc(COc2ccc3c(C)c(C)c(=O)oc3c2)n1

>  <IC50 ratio MAO A / MAO B>
~ 930

$$$$

Please give the measured IC50 ratio MAO A / MAO B for this compound: COC(C)c1cc(COc2ccc3c(C)c(C)c(=O)oc3c2)on1 (stereo not drawn)
2400

Repeat for the following compound: Cc1c(C)c2ccc(OCc3cc(C(C)C)nn3C)cc2oc1=O
~ 2000

Repeat for the following compound: CCc1nnc(COc2ccc3c(C)c(C)c(=O)oc3c2)o1
~ 900

Repeat for the following compound: Cc1c(C)c2ccc(OCc3nnc(C4CC4)s3)cc2oc1=O
~ 8300
